- Species: Rattus norvegicus
- ASSAY NAME: Open TG-GATES - Regimen: Single
- Type: toxicity, organism-based, Sprague-Dawley
- Parameters: regimen Single, gender Male, age 6 weeks
- EXPERIMENTAL CONTEXT: in vivo, po, 100 mg/kg, 6 h, tissue Plasma, route gavage, dose level Low
EXPERIMENTAL ENDPOINT: ALT (IU/L)
Give the number; IU/L is assumed, so skip it.

Below, 2 compounds whose answers are already recorded.
Lookup: // ALT lookup, key: Cc1nnc2n1-c1ccc(Cl)cc1C(c1ccccc1Cl)=NC2 [TRIAZOLAM]
Found: 40.4

Lookup: // ALT lookup, key: CNC(=C[N+](=O)[O-])NCCSCc1ccc(CN(C)C)o1 [RANITIDINE]
Found: 34

***
Lookup: // ALT lookup, key: COC(=O)C1=C(C)NC(C)=C(C(=O)OC)C1c1ccccc1[N+](=O)[O-] [NIFEDIPINE]
Found: 54.6

Attribution: ChEMBL document CHEMBL3885861
